# MEASURED_TARGET: Replicase polyprotein 1ab (Severe acute respiratory syndrome coronavirus 2)
# TEST_SUMMARY: Inhibition of SARS-CoV-2 main protease by FRET assay
Measured log10 IC50 values are reported for all entries that follow.
QUANTITY_MEASURED: log10 IC50 (log10 of the value in nM)

>  <MOLECULE_SMILES>
O=C(Cc1ccccc1)N[C@H](Cc1ccccc1)C(=O)C(=O)NCc1ccccn1

>  <log10 IC50>
2.34

$$$$
>  <MOLECULE_SMILES>
O=C(NCc1ccccn1)C(=O)[C@@H](Cc1ccccc1)NC(=O)[C@H]1COCCN1C(=O)[C@@H]1C[C@@H]2[C@H](C1)C2(F)F

>  <log10 IC50>
1.37

$$$$
>  <MOLECULE_SMILES>
O=C(NCc1ccccn1)C(=O)[C@@H](Cc1ccccc1)NC(=O)c1ccccc1

>  <log10 IC50>
2.32

$$$$
>  <MOLECULE_SMILES>
C[C@@H](NC(=O)CC1CCC(F)(F)CC1)C(=O)N[C@H](Cc1ccccc1)C(=O)C(=O)NCc1ccccn1

>  <log10 IC50>
1.21

$$$$
>  <MOLECULE_SMILES>
CC[C@@H](NC(=O)C1CCC(F)(F)CC1)C(=O)N[C@H](Cc1ccccc1)C(=O)C(=O)NCc1ccccn1

>  <log10 IC50>
1.62

$$$$
>  <MOLECULE_SMILES>
O=C(NCc1ccccn1)C(=O)[C@@H](Cc1ccccc1)NC(=O)C1(NC(=O)C2CCC(F)(F)CC2)CC1

>  <log10 IC50>
1.33

$$$$
>  <MOLECULE_SMILES>
O=C(NCc1ccccn1)C(=O)[C@@H](Cc1ccccc1)NC(=O)[C@H]1COCCN1C(=O)CC1CCC(F)(F)CC1

>  <log10 IC50>
1.04

$$$$
>  <MOLECULE_SMILES>
O=C(CCc1ccccc1)N[C@H](Cc1ccccc1)C(=O)C(=O)NCc1ccccn1

>  <log10 IC50>
1.94

$$$$

###

# MEASURED_TARGET: Replicase polyprotein 1ab (Severe acute respiratory syndrome coronavirus 2, UniProt P0DTD1)
# TEST_SUMMARY: Inhibition of SARS-CoV-2 main protease by FRET assay
pIC50: −log10 of the molar value.

>  <MOLECULE_SMILES>
O=C(CCCc1ccccc1)N[C@H](Cc1ccccc1)C(=O)C(=O)NCc1ccccn1

>  <pIC50>
7.47

$$$$
>  <MOLECULE_SMILES>
O=C(CNC(=O)[C@@H]1C[C@@H]2[C@H](C1)C2(F)F)N[C@H](Cc1ccccc1)C(=O)C(=O)NCc1ccccn1

>  <pIC50>
7.75

$$$$
>  <MOLECULE_SMILES>
O=C(CNC(=O)C1CCC(F)(F)CC1)N[C@H](Cc1ccc(Cl)c(Cl)c1)C(=O)C(=O)NCc1ccccn1

>  <pIC50>
7.46

$$$$
>  <MOLECULE_SMILES>
N#Cc1cc(C(=O)NCC(=O)N[C@H](Cc2ccccc2)C(=O)C(=O)NCc2ccccn2)ccc1F

>  <pIC50>
6.77

$$$$
>  <MOLECULE_SMILES>
O=C(CNC(=O)c1ccccc1)N[C@H](Cc1ccccc1)C(=O)C(=O)NCc1ccccn1

>  <pIC50>
6.85

$$$$
>  <MOLECULE_SMILES>
O=C(CNC(=O)c1ccc(Cl)c(F)c1)N[C@H](Cc1ccccc1)C(=O)C(=O)NCc1ccccn1

>  <pIC50>
7.73

$$$$
>  <MOLECULE_SMILES>
CN(CC(=O)N[C@H](Cc1ccccc1)C(=O)C(=O)NCc1ccccn1)C(=O)C1CCC(F)(F)CC1

>  <pIC50>
7.51

$$$$
>  <MOLECULE_SMILES>
COC[C@@H](NC(=O)C1CCC(F)(F)CC1)C(=O)N[C@H](Cc1ccccc1)C(=O)C(=O)NCc1ccccn1

>  <pIC50>
7.77

$$$$
>  <MOLECULE_SMILES>
O=C(COc1ccccc1)N[C@H](Cc1ccccc1)C(=O)C(=O)NCc1ccccn1

>  <pIC50>
7.26

$$$$
>  <MOLECULE_SMILES>
O=C(NCc1ccccn1)C(=O)[C@@H](Cc1ccccc1)NC(=O)[C@H]1CC(F)(F)CN1C(=O)[C@@H]1C[C@@H]2[C@H](C1)C2(F)F

>  <pIC50>
7.43

$$$$
>  <MOLECULE_SMILES>
O=C(CC1CCC(F)(F)CC1)NCC(=O)N[C@H](Cc1ccccc1)C(=O)C(=O)NCc1ccccn1

>  <pIC50>
7.82

$$$$
>  <MOLECULE_SMILES>
O=C(NCc1ccccn1)C(=O)[C@@H](Cc1ccccc1)NC(=O)[C@H]1CC(F)(F)CN1C(=O)CC1CCC(F)(F)CC1

>  <pIC50>
7.46

$$$$

###

# MEASURED_TARGET: Replicase polyprotein 1ab (Severe acute respiratory syndrome coronavirus 2)
# TEST_SUMMARY: Inhibition of SARS-CoV-2 Main protease using MCA-AVLQSGFR-Lys(DNP)-Lys-NH2 as substrate preincubated for 10 mins followed by substrate addition by FRET assay
pIC50: −log10 of the molar value.
QUANTITY_MEASURED: pIC50

>  <MOLECULE_SMILES>
[2H][C@](C(=O)N[C@@H](C)c1ccc(F)cc1)(c1ccccc1)N(C(=O)C(C)=O)c1ccc2c(c1)oc1ccccc12

>  <RECORDED_MEASUREMENT>
8.10

$$$$
